Assign residual activity to each entry below.
molecular target: Serine/threonine-protein kinase MARK1 (Homo sapiens); conditions: at 1 µM
Answers are plain numbers, in %.

Please review the following examples before continuing.
INSERT INTO results (smiles_entry, tested_target, observation_type, measured) VALUES
  ('c1cc(-c2cnn3cc(-c4ccc(OCCN5CCCCC5)cc4)cnc23)ccn1', 'Serine/threonine-protein kinase MARK1 (Homo sapiens)', 'residual activity', 60),
  ('COc1cc2ncnc(Nc3ccc(OCc4ccccc4)cc3)c2cc1OC', 'Serine/threonine-protein kinase MARK1 (Homo sapiens)', 'residual activity', 104);

Each compound below has a recorded value; state its residual activity.
1. COC(=O)[C@@]1(O)C[C@H]2O[C@]1(C)n1c3ccccc3c3c4c(c5c6ccccc6n2c5c31)C(=O)NC4
2. CCn1cnc2c(Nc3cccc(Cl)c3)nc(N[C@@H]3CCCC[C@@H]3N)nc21
3. COc1ccc2c(c[n+](C)c3c4cc5c(cc4ccc23)OCO5)c1OC

a:
1. 0
2. 77
3. 98

* * *

target: Fibroblast growth factor receptor 1 (Homo sapiens); settings: at 10 µM
Returns condition met if the recorded residual activity is greater than or equal to 40%, and condition not met otherwise.

Some solved entries appear below for comparison.
INSERT INTO measurements (smiles_entry, tested_target, group_label) VALUES
  ('c1cc(-c2cnn3cc(-c4ccc(OCCN5CCCCC5)cc4)cnc23)ccn1', 'Fibroblast growth factor receptor 1 (Homo sapiens)', 'condition not met'),
  ('O=C1c2ccccc2-c2nc3nnnn3nc21', 'Fibroblast growth factor receptor 1 (Homo sapiens)', 'condition met'),
  ('COc1ccc2c(c1)/C(=C/c1cnc[nH]1)C(=O)N2', 'Fibroblast growth factor receptor 1 (Homo sapiens)', 'condition not met');

q: Check the entry COc1cc(OC)c(/C=C2\C(=O)Nc3ccccc32)c(OC)c1 : does residual activity equal or exceed 40%?
a: condition met

q: Check the entry CCn1cnc2c(Nc3cccc(Cl)c3)nc(N[C@@H]3CCCC[C@@H]3N)nc21 : does residual activity equal or exceed 40%?
a: condition not met

q: Check the entry O=c1[nH]c2ccccc2n1C1CCN(Cc2ccc(-c3nc4cc5[nH]cnc5cc4nc3-c3ccccc3)cc2)CC1 : does residual activity equal or exceed 40%?
a: condition not met

q: Check the entry COc1ccc2c(c[n+](C)c3c4cc5c(cc4ccc23)OCO5)c1OC : does residual activity equal or exceed 40%?
a: condition met

* * *

target: Death-associated protein kinase 1 (Homo sapiens); settings: at 1 µM
Returns yes if the recorded residual activity is greater than or equal to 90%, and no otherwise.

Some solved entries appear below for comparison.
INSERT INTO results (smiles_entry, group_label) VALUES
  ('CCN(CC)CCCCN1c2ccccc2Oc2ccc(Cl)cc21', 'yes'),
  ('COc1ccc(C(=O)Nc2sc3c(c2C(N)=O)CCCC3)cc1OC', 'yes'),
  ('CC(C)(C)c1cc(C=C(C#N)C#N)cc(Br)c1O', 'yes');

q: Check the entry CN(C)CCCn1cc(C2=C(c3c[nH]c4ccccc34)C(=O)NC2=O)c2ccccc21 : does residual activity equal or exceed 90%?
a: yes

q: Check the entry O=C(Nc1nc2ccccc2n1CCN1CCOCC1)c1cccc([N+](=O)[O-])c1 : does residual activity equal or exceed 90%?
a: no

q: Check the entry N#C/C(=C(\N)Sc1ccc(N)cc1)c1ccccc1C(F)(F)F : does residual activity equal or exceed 90%?
a: no

q: Check the entry O=C(c1ccccc1)c1ccc(N2CCOCC2)cc1O : does residual activity equal or exceed 90%?
a: yes

q: Check the entry O=C1NC(=O)c2cc(Nc3ccc(F)cc3)c(Nc3ccc(F)cc3)cc21 : does residual activity equal or exceed 90%?
a: no

q: Check the entry COc1cc2ncnc(Nc3ccc(OCc4ccccc4)cc3)c2cc1OC : does residual activity equal or exceed 90%?
a: yes

* * *

Target: 3-phosphoinositide-dependent protein kinase 1 (Homo sapiens)
Sequence (whole entry): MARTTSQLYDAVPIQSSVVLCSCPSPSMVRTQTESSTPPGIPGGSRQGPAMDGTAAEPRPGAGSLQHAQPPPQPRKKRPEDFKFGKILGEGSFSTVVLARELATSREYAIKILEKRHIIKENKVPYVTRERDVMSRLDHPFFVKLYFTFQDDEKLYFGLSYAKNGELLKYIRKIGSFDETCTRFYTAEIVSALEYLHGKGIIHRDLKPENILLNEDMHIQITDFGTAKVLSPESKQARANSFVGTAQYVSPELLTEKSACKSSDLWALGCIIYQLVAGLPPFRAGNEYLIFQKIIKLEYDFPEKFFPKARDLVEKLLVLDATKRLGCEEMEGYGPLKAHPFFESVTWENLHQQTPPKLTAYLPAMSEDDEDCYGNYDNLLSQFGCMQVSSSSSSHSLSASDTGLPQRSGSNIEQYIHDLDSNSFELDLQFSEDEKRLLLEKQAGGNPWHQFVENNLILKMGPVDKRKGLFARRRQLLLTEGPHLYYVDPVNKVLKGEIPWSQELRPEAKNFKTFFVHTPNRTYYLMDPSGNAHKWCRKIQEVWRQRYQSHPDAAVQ
Details: at 1 µM
OBSERVATION_TYPE: residual activity (%)
Numbers only, in %.

Each compound below has a recorded value; state its residual activity.
1. O=[N+]([O-])/C=C/c1ccc2c(c1)OCO2
2. O=C1c2ccccc2-c2nc3nnnn3nc21
3. C[S+]([O-])c1ccc(-c2nc(-c3ccc(F)cc3)c(-c3ccncc3)[nH]2)cc1 (stereo not drawn)
4. COC(=O)[C@@]1(O)C[C@H]2O[C@]1(C)n1c3ccccc3c3c4c(c5c6ccccc6n2c5c31)C(=O)NC4
5. COc1ccc2c(c1)/C(=C/c1cnc[nH]1)C(=O)N2
6. O=c1[nH]c2ccccc2n1C1CCN(Cc2ccc(-c3nc4cc5[nH]cnc5cc4nc3-c3ccccc3)cc2)CC1

a:
1. 106
2. 121
3. 117
4. -1
5. 76
6. 113

Each compound below has a recorded value; state its residual activity.
1. O=C1NC(=O)c2c1c1c3ccccc3n3c1c1c2c2ccccc2n1C1CCC3O1
2. O=C1Nc2ccc3ncsc3c2/C1=C/c1c[nH]cn1

a:
27
31

* * *

molecular target: Protein kinase C epsilon type (Homo sapiens) (UniProt Q02156); settings: at 10 µM
Sequence (Q02156 whole entry): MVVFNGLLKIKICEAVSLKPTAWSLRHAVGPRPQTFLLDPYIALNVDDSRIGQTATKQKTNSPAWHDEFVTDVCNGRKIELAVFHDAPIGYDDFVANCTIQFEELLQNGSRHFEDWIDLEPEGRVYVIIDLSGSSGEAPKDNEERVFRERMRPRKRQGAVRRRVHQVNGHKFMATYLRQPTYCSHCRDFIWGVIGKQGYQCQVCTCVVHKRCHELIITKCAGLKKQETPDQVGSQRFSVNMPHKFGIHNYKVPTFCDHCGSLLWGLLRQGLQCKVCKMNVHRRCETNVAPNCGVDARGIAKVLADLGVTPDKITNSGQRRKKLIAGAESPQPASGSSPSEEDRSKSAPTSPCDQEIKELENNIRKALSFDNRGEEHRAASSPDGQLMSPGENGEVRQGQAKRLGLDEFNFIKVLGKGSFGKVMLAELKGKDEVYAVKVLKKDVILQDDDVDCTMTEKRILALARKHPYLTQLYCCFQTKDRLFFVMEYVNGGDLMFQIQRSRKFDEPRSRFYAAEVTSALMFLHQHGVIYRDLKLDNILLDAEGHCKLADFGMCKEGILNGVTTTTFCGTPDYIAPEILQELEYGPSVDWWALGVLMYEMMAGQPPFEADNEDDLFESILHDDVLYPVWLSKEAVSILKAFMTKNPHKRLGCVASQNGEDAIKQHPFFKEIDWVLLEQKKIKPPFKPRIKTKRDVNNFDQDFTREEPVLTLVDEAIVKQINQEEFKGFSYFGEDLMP
OBSERVATION_TYPE: residual activity (%)
Answers are plain numbers, in %.

Each compound below has a recorded value; state its residual activity.
1. COC(=O)[C@@]1(O)C[C@H]2O[C@]1(C)n1c3ccccc3c3c4c(c5c6ccccc6n2c5c31)C(=O)NC4
2. c1cc(-c2cnn3cc(-c4ccc(OCCN5CCCCC5)cc4)cnc23)ccn1
3. O=[N+]([O-])/C=C/c1ccc2c(c1)OCO2

a:
1. 10
2. 103
3. 81

* * *

target: Inhibitor of nuclear factor kappa-B kinase subunit alpha (Homo sapiens) (UniProt O15111); conditions: at 10 µM
Sequence (O15111 whole entry): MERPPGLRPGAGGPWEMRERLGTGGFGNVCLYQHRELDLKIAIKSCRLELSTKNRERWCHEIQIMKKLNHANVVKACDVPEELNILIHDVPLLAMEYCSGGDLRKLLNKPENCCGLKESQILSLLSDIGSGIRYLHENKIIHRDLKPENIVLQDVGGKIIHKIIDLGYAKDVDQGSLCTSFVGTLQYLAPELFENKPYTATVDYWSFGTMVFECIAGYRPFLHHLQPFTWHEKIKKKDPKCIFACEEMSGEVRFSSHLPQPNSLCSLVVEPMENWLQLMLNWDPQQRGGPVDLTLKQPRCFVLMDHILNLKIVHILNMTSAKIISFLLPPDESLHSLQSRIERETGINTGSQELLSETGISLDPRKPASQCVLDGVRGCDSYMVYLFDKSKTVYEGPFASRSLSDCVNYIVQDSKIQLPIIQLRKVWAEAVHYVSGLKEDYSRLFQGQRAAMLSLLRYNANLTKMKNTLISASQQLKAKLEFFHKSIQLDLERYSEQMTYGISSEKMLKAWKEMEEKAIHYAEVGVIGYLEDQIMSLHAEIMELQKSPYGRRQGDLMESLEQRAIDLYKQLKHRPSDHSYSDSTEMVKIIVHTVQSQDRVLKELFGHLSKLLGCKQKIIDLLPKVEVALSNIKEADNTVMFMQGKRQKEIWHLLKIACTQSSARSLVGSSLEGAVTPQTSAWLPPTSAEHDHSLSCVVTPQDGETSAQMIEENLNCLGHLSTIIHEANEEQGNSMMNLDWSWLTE
OBSERVATION_TYPE: residual activity (%)
One number for each entry, in %.

Please review the following examples before continuing.
INSERT INTO measurements (smiles_entry, value_unit, measured) VALUES
  ('O=c1[nH]c2ccccc2n1C1CCN(Cc2ccc(-c3nc4cc5[nH]cnc5cc4nc3-c3ccccc3)cc2)CC1', '%', 109),
  ('CCc1nc(-c2ccc(OC)cc2)[nH]c1-c1ccncc1', '%', 104),
  ('COc1ccc2c(c1)/C(=C/c1cnc[nH]1)C(=O)N2', '%', 23),
  ('CC(C)(C)c1cc(C=C(C#N)C#N)cc(Br)c1O', '%', 99);

Okay, next one:
q: Provide residual activity, tested on Inhibitor of nuclear factor kappa-B kinase subunit alpha (Homo sapiens) (UniProt O15111), for O=C1NC(=O)c2c1c1c3ccccc3n3c1c1c2c2ccccc2n1C1CCC3O1 .
a: 73

* * *

target: Mitogen-activated protein kinase 3 (Homo sapiens) (UniProt P27361); settings: at 10 µM
Sequence (P27361 whole entry): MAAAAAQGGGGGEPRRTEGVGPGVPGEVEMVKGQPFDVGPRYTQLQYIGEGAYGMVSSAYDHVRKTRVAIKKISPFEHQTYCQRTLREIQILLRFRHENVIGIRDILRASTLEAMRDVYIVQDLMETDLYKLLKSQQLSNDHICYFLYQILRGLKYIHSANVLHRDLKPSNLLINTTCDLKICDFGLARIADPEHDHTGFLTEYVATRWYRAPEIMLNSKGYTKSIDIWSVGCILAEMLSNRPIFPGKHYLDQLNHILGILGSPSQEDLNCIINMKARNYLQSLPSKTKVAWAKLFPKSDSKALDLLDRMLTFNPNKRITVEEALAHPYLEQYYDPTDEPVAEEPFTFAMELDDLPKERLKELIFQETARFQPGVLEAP
Description: Millipore: Percentage of residual kinase activity of MAPK3 at 10uM relative to control. Control inhibitor: ERK Inhibitor II at 30.0uM. Buffer: 25 mM Tris pH 7.5, 0.02 mM EGTA
Assign residual activity to each entry below.
Give bare numbers, in %.

Each compound below has a recorded value; state its residual activity.
1. N/C(=N\[N+](=O)[O-])N/N=C\c1ccc(-c2cccc([N+](=O)[O-])c2)o1
2. CC(C)(C)c1cc(C=C(C#N)C#N)cc(Br)c1O

a:
99
97

Each compound below has a recorded value; state its residual activity.
1. COc1cc(OC)c(/C=C2\C(=O)Nc3ccccc32)c(OC)c1
2. CC(C)[C@H](CO)Nc1nc(Nc2cccc(Cl)c2)c2ncn(C(C)C)c2n1
3. c1cc(-c2cnn3cc(-c4ccc(OCCN5CCCCC5)cc4)cnc23)ccn1

a:
1: 85; 2: 40; 3: 104

* * *

Assign residual activity to each entry below.
target: Tyrosine-protein kinase ABL2 (Homo sapiens); conditions: at 1 µM
One number for each entry, in %.

INSERT INTO results (smiles_entry, measured) VALUES
  ('COc1ccc2c(c[n+](C)c3c4cc5c(cc4ccc23)OCO5)c1OC', 92),
  ('N/C(=N\[N+](=O)[O-])N/N=C\c1ccc(-c2cccc([N+](=O)[O-])c2)o1', 96),
  ('CC(C)[C@H](CO)Nc1nc(Nc2cccc(Cl)c2)c2ncn(C(C)C)c2n1', 22),
  ('CCc1nc(-c2ccc(OC)cc2)[nH]c1-c1ccncc1', 104);

Okay, next one:
q: Please supply the value of reported residual activity for the item O=C1Nc2ccc3ncsc3c2/C1=C/c1c[nH]cn1
a: 82
